# measurement_target: NHE3 (UniProt P48764)
# Sequence (P48764 1-834): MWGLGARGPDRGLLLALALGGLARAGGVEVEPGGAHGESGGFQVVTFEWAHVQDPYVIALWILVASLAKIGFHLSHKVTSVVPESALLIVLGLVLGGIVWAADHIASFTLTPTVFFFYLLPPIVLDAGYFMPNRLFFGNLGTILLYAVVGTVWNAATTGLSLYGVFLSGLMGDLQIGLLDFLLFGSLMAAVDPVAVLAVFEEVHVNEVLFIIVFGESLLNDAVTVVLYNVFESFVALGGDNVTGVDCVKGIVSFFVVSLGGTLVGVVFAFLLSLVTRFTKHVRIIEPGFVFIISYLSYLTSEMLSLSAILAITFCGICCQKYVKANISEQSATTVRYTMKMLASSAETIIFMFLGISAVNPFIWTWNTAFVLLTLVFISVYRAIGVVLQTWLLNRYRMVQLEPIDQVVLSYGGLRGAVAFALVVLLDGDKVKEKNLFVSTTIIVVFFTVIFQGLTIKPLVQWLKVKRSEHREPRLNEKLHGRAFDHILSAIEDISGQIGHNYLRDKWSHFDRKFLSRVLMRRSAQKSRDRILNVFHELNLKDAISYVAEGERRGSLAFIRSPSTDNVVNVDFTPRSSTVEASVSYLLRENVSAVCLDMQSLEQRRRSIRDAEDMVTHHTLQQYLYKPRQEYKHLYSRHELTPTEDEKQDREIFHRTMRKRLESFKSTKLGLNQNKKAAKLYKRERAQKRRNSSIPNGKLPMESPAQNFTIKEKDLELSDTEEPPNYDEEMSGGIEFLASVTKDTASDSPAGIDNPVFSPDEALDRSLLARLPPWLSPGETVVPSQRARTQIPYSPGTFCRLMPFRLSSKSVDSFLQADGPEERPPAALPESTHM
# assay_procedure: Cell-based NHE3 activity under transient conditions (BCECF-AM intracellular pH, FLIPR)
# Set-up: species or system Rat or Human
# test_context: embodiment compounds, opossum kidney cells expressing NHE3, read-out: Cell-based NHE3 inhibition IC50 (uM) under transient conditions
parameter: IC50 (µM)

Example entries begin here.
CN1Cc2c(Cl)cc(Cl)cc2C(c2ccc3c(c2)C(=O)N(CCOCCOCCNC(=O)Nc2ccc(NC(=O)NCCOCCOCCN4Cc5ccc(C6CN(C)Cc7c(Cl)cc(Cl)cc76)cc5C4=O)cc2)C3)C1 (stereo not drawn); 0.48
CN1Cc2c(Cl)cc(Cl)cc2C(c2ccc3c(c2)C(=O)N(CCOCCOCCNC(=O)NCCCCNC(=O)NCCOCCOCCN2CCc4ccc(C5CN(C)Cc6c(Cl)cc(Cl)cc65)cc4C2=O)CC3)C1 (stereo not drawn); 0.77
CN1Cc2c(Cl)cc(Cl)cc2C(c2ccc3c(c2)C(=O)N(CCOCCOCCNC(=O)NC2CCC(NC(=O)NCCOCCOCCN4Cc5ccc(C6CN(C)Cc7c(Cl)cc(Cl)cc76)cc5C4=O)CC2)C3)C1 (stereo not drawn); 0.91
CN1Cc2c(Cl)cc(Cl)cc2C(c2cccc3c2CN(CCOCCOCCNC(=O)NCCCCNC(=O)NCCOCCOCCN2Cc4c(cccc4C4CN(C)Cc5c(Cl)cc(Cl)cc54)C2=O)C3=O)C1 (stereo not drawn); 2.05
CN1Cc2c(Cl)cc(Cl)cc2C(c2ccc3c(c2)S(=O)(=O)N(CCOCCOCCNC(=O)NCCCCNC(=O)NCCOCCOCCN2CCc4ccc(C5CN(C)Cc6c(Cl)cc(Cl)cc65)cc4S2(=O)=O)CC3)C1 (stereo not drawn); 0.22

A: CN1Cc2c(Cl)cc(Cl)cc2C(c2ccc3c(c2)S(=O)(=O)N(CCOCCOCCNC(=O)NCCCCNC(=O)NCCOCCOCCN2C=Cc4ccc(C5CN(C)Cc6c(Cl)cc(Cl)cc65)cc4S2(=O)=O)C=C3)C1 (stereo not drawn) [Embodiment E1]
B: CN1Cc2c(Cl)cc(Cl)cc2C(c2ccc3c(c2)C(=O)N(CCOCCOCCNC(=O)O[C@@H]2COC4C2OC[C@H]4OC(=O)NCCOCCOCCN2Cc4ccc(C5CN(C)Cc6c(Cl)cc(Cl)cc65)cc4C2=O)C3)C1 (stereo partly drawn)
When their IC50 values are compared, which is larger, A or B ? Give the label of your selection.
B

====

# measurement_target: NHE3 (UniProt P48764)
# assay_procedure: Cell-based NHE3 activity under persistent conditions (60 min pre-incubation, compound removed)
# Design: species or system Rat or Human
# test_context: opossum kidney cells expressing NHE3, read-out: Cell-based NHE3 inhibition IC50 (uM) under persistent conditions
parameter: IC50 (µM)

Example entries begin here.
CN1Cc2c(Cl)cc(Cl)cc2[C@H](c2cccc(S(=O)(=O)NCCOCCOCCNC(=O)NCCCCNC(=O)NCCOCCOCCNS(=O)(=O)c3cccc([C@@H]4CN(C)Cc5c(Cl)cc(Cl)cc54)c3)c2)C1 [Tenapanor, reference compound]; 0.56
CN1Cc2c(Cl)cc(Cl)cc2C(c2ccc3c(c2)C(=O)N(CCOCCOCCNC(=O)Nc2ccc(NC(=O)NCCOCCOCCN4Cc5ccc(C6CN(C)Cc7c(Cl)cc(Cl)cc76)cc5C4=O)cc2)C3)C1 (stereo not drawn) [Embodiment H2]; 0.06
CN1Cc2c(Cl)cc(Cl)cc2C(c2ccc3cnn(CCOCCOCCNC(=O)NCCCCNC(=O)NCCOCCOCCn4ncc5ccc(C6CN(C)Cc7c(Cl)cc(Cl)cc76)cc54)c3c2)C1 (stereo not drawn) [Embodiment D1-P2]; 3.61
CN1Cc2c(Cl)cc(Cl)cc2C(c2ccc3c(c2)C(=O)N(CCOCCOCCNC(=O)NC2CCC(NC(=O)NCCOCCOCCN4Cc5ccc(C6CN(C)Cc7c(Cl)cc(Cl)cc76)cc5C4=O)CC2)C3)C1 (stereo not drawn) [Embodiment H1]; 0.04
CN1Cc2c(Cl)cc(Cl)cc2C(c2ccc3c(c2)C(=O)N(CCOCCOCCOCCNC(=O)NCCCCNC(=O)NCCOCCOCCCN2Cc4ccc(C5CCCc6ccc(Cl)cc65)cc4C2=O)C3)C1 (stereo not drawn) [Embodiment B6]; 0.04

a: CN1Cc2c(Cl)cc(Cl)cc2C(c2ccc3c(c2)C(=O)N(CCOCCOCCNC(=O)CN(CCN(CC(=O)O)CC(=O)NCCOCCOCCN2Cc4ccc(C5CN(C)Cc6c(Cl)cc(Cl)cc65)cc4C2=O)CC(=O)O)C3)C1 (stereo not drawn) [Embodiment F1]
b: CN1Cc2c(Cl)cc(Cl)cc2C(c2ccc3c(c2)C(=O)N(CCOCCOCCOCCNC(=O)[C@@H](O)[C@@H](O)C(=O)NCCOCCOCCOCCN2Cc4ccc(C5CN(C)Cc6c(Cl)cc(Cl)cc65)cc4C2=O)C3)C1 (stereo partly drawn) [Embodiment J3]
Problem: Given the entries a and b , determine which has the lower reported IC50. Give the label of your selection.
b
(b: 0.08 µM, a: 0.64 µM)

1: CN1Cc2c(Cl)cc(Cl)cc2C(c2ccc3c(c2)C(=O)N(CCOCCOCCNC(=O)O[C@@H]2COC4C2OC[C@H]4OC(=O)NCCOCCOCCN2Cc4ccc(C5CN(C)Cc6c(Cl)cc(Cl)cc65)cc4C2=O)C3)C1 (stereo partly drawn) [Embodiment G1]
2: CN1Cc2c(Cl)cc(Cl)cc2C(c2ccc3c(c2)C(=O)N(CCOCCOCCNC(=O)NCCCCNC(=O)NCCOCCOCCN2Cc4ccc(C5CN(C)Cc6c(Cl)cc(Cl)cc65)cc4C2=O)C3)C1 (stereo not drawn) [Embodiment B1]
When their IC50 values are compared, which is larger, 1 or 2 ? Give the label of your selection.
1
(1: 0.1 µM, 2: 0.02 µM)

====

# measurement_target: NHE3 (UniProt P48764)
# assay_procedure: Cell-based NHE3 activity under transient conditions (BCECF-AM intracellular pH, FLIPR)
# Design: species or system Rat or Human
# test_context: embodiment compounds, opossum kidney cells expressing NHE3, read-out: Cell-based NHE3 inhibition IC50 (uM) under transient conditions
parameter: IC50 (µM)

Example entries begin here.
CN1Cc2c(Cl)cc(Cl)cc2C(c2ccc3c(c2)C(=O)N(CCOCCOCCNC(=O)NCCCCNC(=O)NCCOCCOCCN2Cc4ccc(C5CN(C)Cc6c(Cl)cc(Cl)cc65)cc4C2=O)C3)C1 (centres unmarked); 0.52
CN1Cc2c(Cl)cc(Cl)cc2C(c2ccc3c(c2)CN(CCOCCOCCNC(=O)NCCCCNC(=O)NCCOCCOCCN2Cc4cc(C5CN(C)Cc6c(Cl)cc(Cl)cc65)ccc4C2=O)C3=O)C1 (centres unmarked); 0.93
CN1Cc2c(Cl)cc(Cl)cc2C(c2ccc3c(c2)C(=O)N(CCOCCOCCOCCNC(=O)CCC(N)(CCC(=O)NCCOCCOCCOCCN2Cc4ccc(C5CN(C)Cc6c(Cl)cc(Cl)cc65)cc4C2=O)CCC(=O)NCCOCCOCCOCCN2Cc4ccc(C5CN(C)Cc6c(Cl)cc(Cl)cc65)cc4C2=O)C3)C1 (centres unmarked); 0.19

I: CN1Cc2c(Cl)cc(Cl)cc2[C@H](c2cccc(S(=O)(=O)NCCOCCOCCNC(=O)NCCCCNC(=O)NCCOCCOCCNS(=O)(=O)c3cccc([C@@H]4CN(C)Cc5c(Cl)cc(Cl)cc54)c3)c2)C1 [Tenapanor, reference compound]
II: CN1Cc2c(Cl)cc(Cl)cc2C(c2cccc3c2CN(CCOCCOCCNC(=O)NCCCCNC(=O)NCCOCCOCCN2Cc4c(C5CN(C)Cc6c(Cl)cc(Cl)cc65)cccc4S2(=O)=O)S3(=O)=O)C1 (centres unmarked)
Problem: Given the entries I and II , determine which has the lower reported IC50. Give the label of your selection.
I
(I: 0.74 µM, II: 3.14 µM)
